# Read-out: JUN Transcription Factor, JUN (gene 3725)
# test.protocol: LTEA_HepaRG_JUN: Life Technologies and Expression Analysis (LTEA) Assay for JUN Transcription Factor using HepaRG (AID 2283513)
# assay.context: mRNA level, 48 h; actives raise or lower the signal
Calls of active or inactive are those of the source. Rule for the calls: active = hit-call score of the fitted dose curve at least 0.9, where 1 is the maximum; inactive = score below 0.9.
Outcome codes: active, inactive

>>> discrete_label("C[N+]1(C)CCCCC1")
"inactive"
>>> discrete_label("S=C1NCCN1")
"inactive"
>>> discrete_label("CCC(=O)Nc1ccc(Cl)c(Cl)c1")
"inactive"
>>> discrete_label("CCOP(=S)(OCC)Oc1cc(C)nc(C(C)C)n1")
"inactive"
>>> discrete_label("CC[C@H](C)[C@H]1O[C@]2(C=C[C@@H]1C)C[C@@H]1C[C@@H](C/C=C(\\C)[C@@H](O[C@H]3C[C@H](OC)[C@@H](O[C@H]4C[C@H](OC)[C@@H](NC)[C@H](C)O4)[C@H](C)O3)[C@@H](C)/C=C/C=C3\\CO[C@@H]4[C@H](O)C(C)=C[C@@H](C(=O)O1)[C@]34O)O2")
"active"
>>> discrete_label("CCOP(=S)(Oc1cnc(C(C)(C)C)nc1)OC(C)C (centres undefined)")
"inactive"
>>> discrete_label("CSc1nc(NC(C)C)nc(NC(C)C)n1")
"inactive"
>>> discrete_label("CCCSP(=O)(OCC)Oc1ccc(Br)cc1Cl (centres undefined)")
"inactive"
>>> discrete_label("C#CCC1=C(C)C(OC(=O)C2C(C=C(C)C)C2(C)C)CC1=O (centres undefined)")
"inactive"
>>> discrete_label("Cc1cc(C2CC2)nc(Nc2ccccc2)n1")
"inactive"
>>> discrete_label("CCOP(=O)(NC(C)C)Oc1ccc(SC)c(C)c1 (centres undefined)")
"inactive"
>>> discrete_label("CCNc1nc(Cl)nc(NC(C)(C)C#N)n1")
"inactive"
>>> discrete_label("CCOP(=S)(OCC)Oc1ccc2c(C)c(Cl)c(=O)oc2c1")
"inactive"
>>> discrete_label("CCCOCC(=Nc1ccc(Cl)cc1C(F)(F)F)n1ccnc1")
"active"
>>> discrete_label("COc1ccc(C(=CC(=O)N2CCOCC2)c2ccc(Cl)cc2)cc1OC")
"inactive"
>>> discrete_label("Cc1ccn2nc(S(=O)(=O)Nc3c(F)cccc3F)nc2n1")
"inactive"
>>> discrete_label("COc1cc(OC)nc(Sc2cccc(Cl)c2C(=O)O)n1")
"inactive"
>>> discrete_label("COP(=O)(NC(C)=O)SC (centres undefined)")
"inactive"
>>> discrete_label("C#CC(C)(C)NC(=O)c1cc(Cl)cc(Cl)c1")
"inactive"
>>> discrete_label("CCOP(=S)(OCC)OC(Cl)C(Cl)(Cl)Cl (centres undefined)")
"inactive"
>>> discrete_label("FC(F)C(F)(F)OCC(Cn1cncn1)c1ccc(Cl)cc1Cl (centres undefined)")
"inactive"
>>> discrete_label("CCCCSP(=O)(SCCCC)SCCCC")
"inactive"
>>> discrete_label("CNC(=O)ON=C(SC)C(=O)N(C)C")
"inactive"
>>> discrete_label("CNc1cnn(-c2cccc(C(F)(F)F)c2)c(=O)c1Cl")
"inactive"
